Hello, the source for this data is PubChem BioAssay AID602340, in case you need it.

# assay_overview: protection of differentiated C2C12 cells from simvastatin – single point, plate reader, primary screen (AID 602340);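 note: myotubes were challenged with 10 µM simvastatin during compound exposure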
# condition_context: C2C12 myotubes + simvastatin, ATP luminescence, 48 h; at 7.49 µM; hits give high values; scaled: DMSO 0, geranylgeraniol control 100
In all, about 330,000 compounds went through this assay and about 2,600 (0.79%) were called active. The entries come from a sample that favours actives as a whole.
readout_label: rescue of ATP level (%)

> print(dat)
                                    compound  reported.result
 1  CCS(=O)(=O)N1[C@H](CO)[C@@H](c2ccc(C#CC(C)C)cc2)[C@@H]1C#N            -1.94
 2  C[C@H]1CCCCO[C@H](CN(C)Cc2ccccc2)[C@@H](C)CN([C@@H](C)CO)C(=O)c2cc(NS(C)(=O)=O)ccc2O1            0.662
 3  C[C@@H]1CN([C@H](C)CO)C(=O)c2cc(-c3ccc(C(=O)N(C)C)cc3)cnc2O[C@H]1CN(C)C(=O)C1CC1             5.72
 4  CO[C@H]1CN(C)C(=O)c2ccc(NS(C)(=O)=O)cc2OC[C@@H](C)N(Cc2ccccc2)C[C@@H]1C             7.75
 5  C[C@H]1CN([C@@H](C)CO)S(=O)(=O)c2ccc(C#Cc3ccccc3F)cc2O[C@@H]1CN(C)C(=O)c1ccc2c(c1)OCO2            -14.8
 6  O=C(CN1CCN(c2nc(-c3ccccc3)cs2)CC1)NCc1ccc2c(c1)OCO2              124
 7  CCOC(=O)c1c(NC(=O)CSc2nnc(CN3CCOCC3)n2C)sc2c1CCCC2            -1.41
 8  C[C@@H]1CN([C@H](C)CO)S(=O)(=O)c2ccc(C#CCC3CCCC3)cc2O[C@H]1CN(C)Cc1ccc(C(=O)O)cc1             3.68
 9  O=C(NCc1ccco1)c1ccc(Cn2c(=O)c3sccc3n(Cc3ccc(F)cc3)c2=O)cc1            -13.7
10    O=C(NCc1ccco1)c1cc2sccc2n1Cc1ccc(F)cc1              160
11  CCOC(=O)CN1CC23C=CC(O2)C(C(=O)Nc2ccc(F)cc2)C3C1=O (stereo not drawn)               97
12  CC1(C(=O)NCc2ccc3c(c2)OCO3)CCN1CCc1ccccc1 (stereo not drawn)             34.5
13  COc1ccc(C(O)c2nc(-c3ccc(OC)nc3)cs2)cc1 (stereo not drawn)             4.92
14  Cc1ccc(-c2nc(CS(=O)(=O)CC(=O)NCc3ccc4c(c3)OCO4)c(C)o2)cc1             28.8
15  CCOCCCN1C(=O)C2C(C(=O)Nc3ccc(OCC)cc3)C3C=CC2(O3)C1C(=O)NC1CCCCC1 (stereo not drawn)             9.74
16  COc1ccc(S(=O)(=O)N2CC[C@H]3[C@@H](CO)N(C)c4ccc(C#Cc5ccccc5OC)cc4[C@H]32)cc1               36
17  COc1ccc(C(O)c2nc(-c3ccc4c(c3)OCO4)cs2)cc1 (stereo not drawn)             87.4
18  COCC(=O)N[C@H]1C=C[C@H](CC(=O)N2CCCCC2)O[C@H]1CO             6.62
